Each recorded value in this set is attributed to patent US20020107235A1.

system: MMP-1 (Matrix Metalloproteinase-1) production in SW1353 human chondrosarcoma cells; experiment: glucocorticoid inhibition of IL-1 induced MMP-1 production in human chondrosarcoma cells; format: cell-based; settings: 20 ng/ml IL-1 beta, 72 hours after IL-1 addition, ELISA, read-out: IC50, inhibitor of MMP1 expression
METRIC: IC50
Value and unit, in that order.

Inquiry: Report IC50 on MMP-1 (Matrix Metalloproteinase-1) production in SW1353 human chondrosarcoma cells for this entry: C[C@@H]1C[C@H]2[C@@H]3CCC4=CC(=O)C=C[C@]4(C)[C@@]3(F)[C@@H](O)C[C@]2(C)[C@@]1(O)C(=O)CO
Reply text: 5 nM
